Provenance of the data: patent US9073855B2

SYSTEM UNDER TEST: GST-Bcl-2 (Homo sapiens)
Sequence (P10415 whole entry): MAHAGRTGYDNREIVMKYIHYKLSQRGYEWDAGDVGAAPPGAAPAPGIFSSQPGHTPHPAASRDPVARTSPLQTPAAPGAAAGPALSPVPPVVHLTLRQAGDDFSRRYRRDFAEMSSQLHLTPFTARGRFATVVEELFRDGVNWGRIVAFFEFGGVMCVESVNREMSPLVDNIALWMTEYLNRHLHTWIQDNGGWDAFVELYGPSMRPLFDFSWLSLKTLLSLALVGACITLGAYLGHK
TEST: TR-FRET binding assay, GST-Bcl-2 with F-Bak peptide probe
MEASUREMENT PARAMETERS: TR-FRET Binding Affinity
MEASURED PROPERTY: Ki

Give GST-Bcl-2 (Homo sapiens) Ki for CC1(C)CCC(CN2CCN(c3ccc(C(=O)NS(=O)(=O)c4ccc(NCC5(F)CCOCC5)c([N+](=O)[O-])c4)c(Oc4cccc5[nH]cnc45)c3)CC2)=C(c2ccc(Cl)cc2)C1
< 0.01 nM

Give GST-Bcl-2 (Homo sapiens) Ki for CC1(C)CCC(CN2CCN(c3ccc(C(=O)NS(=O)(=O)c4ccc(OCC5(F)CCOCC5)c(Cl)c4)c(Oc4cccc5[nH]ncc45)c3)CC2)=C(c2ccc(Cl)cc2)C1
0.081 nM

Give GST-Bcl-2 (Homo sapiens) Ki for CC1(C)CCC(CN2CCN(c3ccc(C(=O)NS(=O)(=O)c4cnc(OCC5(F)CCOCC5)c(Cl)c4)c(Oc4cccc5[nH]cnc45)c3)CC2)=C(c2ccc(Cl)cc2)C1
< 0.01 nM

Give GST-Bcl-2 (Homo sapiens) Ki for CC1(C)CCC(CN2CCN(c3ccc(C(=O)NS(=O)(=O)c4ccc(OCC5CCC(C)(O)CC5)c([N+](=O)[O-])c4)c(Oc4cccc5[nH]ncc45)c3)CC2)=C(c2ccc(Cl)cc2)C1 (stereo not shown) [Example 533]
< 0.01 nM

Give GST-Bcl-2 (Homo sapiens) Ki for CC1(C)CCC(CN2CCN(c3ccc(C(=O)NS(=O)(=O)c4cnc(OCC5(F)CCOCC5)c(F)c4)c(Oc4cccc5[nH]cnc45)c3)CC2)=C(c2ccc(Cl)cc2)C1
< 0.01 nM

Give GST-Bcl-2 (Homo sapiens) Ki for CN1CCN(Nc2ccc(S(=O)(=O)NC(=O)c3ccc(N4CCN(CC5=C(c6ccc(Cl)cc6)CC(C)(C)CC5)CC4)cc3Oc3cccc4[nH]cnc34)cc2[N+](=O)[O-])CC1
< 0.01 nM

Give GST-Bcl-2 (Homo sapiens) Ki for CC1(C)CCC(CN2CCN(c3ccc(C(=O)NS(=O)(=O)c4cnc(OCCn5ccnc5)c(Cl)c4)c(Oc4cccc5[nH]ncc45)c3)CC2)=C(c2ccc(Cl)cc2)C1
0.167 nM

Give GST-Bcl-2 (Homo sapiens) Ki for O=C(NS(=O)(=O)c1ccc(NCC2CCOCC2)c([N+](=O)[O-])c1)c1ccc(N2CCN(Cc3ccccc3N3CC4CCC(CC4)C3)CC2)cc1Oc1ccccc1
8.1 nM

Give GST-Bcl-2 (Homo sapiens) Ki for CC1(C)CCC(CN2CCN(c3ccc(C(=O)NS(=O)(=O)c4cnc(OC[C@]5(F)CC[C@](C)(O)CC5)c(Cl)c4)c(Oc4cccc5[nH]ncc45)c3)CC2)=C(c2ccc(Cl)cc2)C1
< 0.01 nM

Give GST-Bcl-2 (Homo sapiens) Ki for CC1(C)CCC(CN2CCN(c3ccc(C(=O)NS(=O)(=O)c4ccc(NC[C@H]5CN(C6CC6)CCO5)c([N+](=O)[O-])c4)c(Oc4cccc5[nH]nnc45)c3)CC2)=C(c2ccc(Cl)cc2)C1
< 0.01 nM
